reported metric: melting point

1) CCCCc1[nH]c2ccc([N+](=O)[O-])cc2c1C(=O)c1ccc(OCCCN(CCCC)CCCC)cc1
116 °C
2) COC(=O)c1ccc(CC(=O)c2cc(OC)c3c(c2)C(C)(C)CCC3(C)C)cc1
143 to 144 °C
3) N#Cc1cc2cc(F)c(F)cc2o1
103 °C
4) N#Cc1c(Cl)c2cccnc2n(Cc2ccccc2)c1=O
188 °C
5) O=c1c(Br)c(OCc2ccccc2)ccn1Cc1ccc(OCc2ccccc2)cc1
138 to 144 °C
6) Cc1cc(=O)n(-c2cc(OC(C)C)c(C)cc2F)c(=O)o1
122 to 124 °C
7) COc1ccc(NC(=O)/C=C/c2c(F)c(F)c(F)c(F)c2F)cc1[N+](=O)[O-]
265 to 266 °C
8) O=C(NC1CC1)c1cccc(-c2ccc3ccn(-c4ccc(Cl)cc4Cl)c3c2)c1
273 to 274 °C
9) CC(C)(Oc1ccc(C(=O)c2ccc(Cl)cc2)cc1)C(=O)NCC(=O)O
144 to 146 °C

The values you see were collected from a melting point compilation (Tetko et al.; mined from patent text by program, amines drawn as free bases though some values may be those of a salt).
